Target: Biotinylated murine soluble TWEAK (amino acids 81-225 of SEQ ID NO: 69) (murine) (UniProt O54907)
Test: SPR (Biacore), biotinylated soluble TWEAK on streptavidin chip, 25 C
RESULT TYPE: Biacore t/2 diss. [min] 25° C. murine (min)
Only the number, expressed in min, is required.

Input line: Output Biacore t/2 diss. [min] 25° C. murine of Humanized <TWEAK> 305- antibody 33 (antibody, V domains shown) VH: QVQLVQSGAEVKKPGSSVKVSCKASGFDFSTYYMSWVRQAPGQGLEWMGTVYVRQGTTYYASWLNGRVTITADESTSTAYMELSSLRSEDTAVYYCARGGYNYDDAFVIWGQGTLVTVSS VL: AIRMTQSPSSFSASTGDRVTITCQASQNIYSNLAWYQQKPGKAPKLLIYTASYLASGVPSRFSGSGSGTDYTLTISCLQSEDFATYYCQTAYYNSRPDTVAFGGGTKVEIK
Output line: 19

Input line: Output Biacore t/2 diss. [min] 25° C. murine of Humanized <TWEAK> 305- antibody 30 (antibody, V domains shown) VH: EVQLLESGGGLVQPGGSLRLSCAASGFDFSTYYMSWVRQAPGKGLEWVSTVYVRQGTTYYASWLNGRFTISRDNSKNTLYLQMNSLTAEDTAVYYCAKGGYNYDDAFVIWGQGTLVTVSS VL: DIQMTQSPSSVSASVGDRVTITCQASQNIYSNLAWYQQKPGKAPKLLIYTASYLASGVPSRFSGSGSGTDFTLTISSLQPEDFATYYCQTAYYNSRPDTVAFGGGTKVEIK
Output line: 17

Input line: Output Biacore t/2 diss. [min] 25° C. murine of Humanized <TWEAK> 305- antibody 28 (antibody, V domains shown) VH: EVQLLESGGGLVQPGGSLTLSCAASGFDFSTYYMSWVRQAPGKGLEWVSTVYVRQGTTYYASWLNGRFTISRDNSKNTLYLQMNSLRAEDTAVYYCAKGGYNYDDAFVIWGQGTLVTVSS VL: DIQMTQSPSSVSASVGDRVTITCQASQNIYSNLAWYQQKPGKAPKLLIYTASYLASGVPSRFSGSGSGTDYTLTISSLQPEDFATYYCQTAYYNSRPDTVAFGGGTKVEIK
Output line: 19
